Data origin: ChEMBL document CHEMBL4219040

Provide the recorded EC50 for the entries that follow.
system_under_test: Glycine receptor alpha-3/beta (Homo sapiens, UniProt O75311+P48167)
Sequence (O75311 whole entry): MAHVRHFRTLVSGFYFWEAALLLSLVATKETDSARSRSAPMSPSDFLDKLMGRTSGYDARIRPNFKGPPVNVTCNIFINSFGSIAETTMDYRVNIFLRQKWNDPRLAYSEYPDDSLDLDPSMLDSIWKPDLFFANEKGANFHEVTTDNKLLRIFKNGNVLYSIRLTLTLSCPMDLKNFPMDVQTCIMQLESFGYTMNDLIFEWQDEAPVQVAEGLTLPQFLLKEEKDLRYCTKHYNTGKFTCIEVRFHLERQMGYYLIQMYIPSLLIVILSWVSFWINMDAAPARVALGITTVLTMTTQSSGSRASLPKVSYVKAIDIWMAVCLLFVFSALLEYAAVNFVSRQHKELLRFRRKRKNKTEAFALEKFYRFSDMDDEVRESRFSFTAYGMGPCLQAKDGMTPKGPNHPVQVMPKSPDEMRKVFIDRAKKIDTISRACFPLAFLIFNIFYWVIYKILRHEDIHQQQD
Sequence (P48167 whole entry): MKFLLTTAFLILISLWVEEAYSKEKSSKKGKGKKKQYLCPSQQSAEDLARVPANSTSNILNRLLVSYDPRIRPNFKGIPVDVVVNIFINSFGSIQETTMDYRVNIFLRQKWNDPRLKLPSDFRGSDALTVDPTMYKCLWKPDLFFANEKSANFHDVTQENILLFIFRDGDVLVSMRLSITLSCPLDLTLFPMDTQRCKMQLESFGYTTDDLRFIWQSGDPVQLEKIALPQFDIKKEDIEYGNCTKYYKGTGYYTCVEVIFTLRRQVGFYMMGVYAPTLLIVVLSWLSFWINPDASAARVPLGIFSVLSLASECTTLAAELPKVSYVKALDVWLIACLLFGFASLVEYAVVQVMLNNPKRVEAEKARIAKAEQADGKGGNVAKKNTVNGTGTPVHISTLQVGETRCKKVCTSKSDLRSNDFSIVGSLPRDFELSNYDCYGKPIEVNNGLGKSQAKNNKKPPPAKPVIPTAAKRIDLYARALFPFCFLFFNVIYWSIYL
assay: Positive allosteric modulation of human GlyRalpha3beta expressed in CHO cells assessed as potentiation of EC20 glycine-induced ion flux by HT assay
Give the value, in units of µM, as a plain number.

Identify measured EC50 corresponding to "CC(C)(C)c1cc(C(C)(C)C)c(O)c(C(=O)O)c1O" 0.0135

Identify measured EC50 corresponding to "O=C(O)c1ccc(C[C@H]2Sc3c(F)cccc3N(Cc3ccccc3C(F)(F)F)C2=O)cc1" 0.661

Identify measured EC50 corresponding to "C#Cc1cc(C(=O)OC)cc(-c2ncco2)c1" 10.2

Identify measured EC50 corresponding to "O=S(=O)(NCCOc1cccc2cccnc12)c1ccccc1" 3.98
